Cited source for all entries: patent US6214859A

experimental-target: 5-HT2 receptor (Rattus norvegicus)
Construct: The precipitate was used as the solution of receptor
Sequence (P14842 whole entry): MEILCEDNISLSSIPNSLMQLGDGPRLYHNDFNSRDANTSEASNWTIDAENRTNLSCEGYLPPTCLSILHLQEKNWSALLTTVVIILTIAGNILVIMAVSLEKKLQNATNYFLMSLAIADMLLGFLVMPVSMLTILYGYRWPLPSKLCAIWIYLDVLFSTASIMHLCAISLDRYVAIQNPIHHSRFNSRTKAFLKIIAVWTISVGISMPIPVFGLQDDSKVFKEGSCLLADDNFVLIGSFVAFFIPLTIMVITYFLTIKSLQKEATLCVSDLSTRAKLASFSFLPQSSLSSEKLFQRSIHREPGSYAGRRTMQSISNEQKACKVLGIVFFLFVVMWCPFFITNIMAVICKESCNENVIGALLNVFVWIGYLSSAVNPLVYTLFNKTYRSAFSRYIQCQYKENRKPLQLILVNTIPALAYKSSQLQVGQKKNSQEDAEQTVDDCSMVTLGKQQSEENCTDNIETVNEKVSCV
method: Affinity to 5-HT2 receptor
property: IC50 (µM)
Express it in µM; write the number only.

INSERT INTO measurements (compound, units_of_measure, obs_value) VALUES
  ('CCCNC(CCC)Cc1cc2ccccc2o1.Cl (centres unmarked) [Compound No. 25, Hydrochloride]', 'µM', 20);

Here is another compound to look at.
Fill in: 5-HT2 receptor (Rattus norvegicus) IC50 for CC(C)C[C@H]1C(=O)N2CCC[C@H]2[C@]2(O)O[C@](NC(=O)[C@@H]3C=C4c5cccc6[nH]c(Br)c(c56)C[C@H]4N(C)C3)(C(C)C)C(=O)N12 [Bromocriptine, reference compound] = 1
